- PROCEDURE SUMMARY: reversed-phase LC retention time (C18, 15 min MeOH gradient); higher = more hydrophobic / later elution
- EXPERIMENTAL PARAMETERS: ionization mode: ESI+; ion species: [M+H]+
EXPERIMENTAL ENDPOINT: reversed-phase LC retention time (min)

>>> recorded_measurement("Cc1cc(-c2ccc(N)c(C)c2)ccc1N")
7.76
>>> recorded_measurement("CC1OC(OCC2OC(Oc3c(-c4ccc(O)c(O)c4)oc4cc(O)cc(O)c4c3=O)C(O)C(O)C2O)C(O)C(O)C1O (stereo not drawn)")
9.72
>>> recorded_measurement("CCNc1ccc2c(C)cc(=O)oc2c1 [7-(Ethylamino)-4-methylcoumarin]")
12.2
>>> recorded_measurement("Cc1cccc(C)c1N(Cn1cccn1)C(=O)CS(=O)(=O)O")
9.52
>>> recorded_measurement("CC(C)C(=O)c1ccccc1")
17.1
>>> recorded_measurement("CC(CCc1ccccc1)NCC(O)c1ccc(O)c(C(N)=O)c1 (stereo not drawn)")
10.5
>>> recorded_measurement("CC(C)(C)CC(C)(C)c1cc(-n2nc3ccccc3n2)c(O)c(C(C)(C)c2ccccc2)c1")
20.4
>>> recorded_measurement("CCCCC(=O)N(Cc1ccc(-c2ccccc2-c2nn[nH]n2)cc1)C(C(=O)O)C(C)C (stereo not drawn)")
14.4
>>> recorded_measurement("COc1ccc2c(c1)[C@]13CCCC[C@@H]1[C@H](C2)N(C)CC3")
11.4
>>> recorded_measurement("O=C(Nc1ccc(Cl)cc1)Nc1ccc(Cl)c(Cl)c1")
16.2
>>> recorded_measurement("CCOP(=S)(OCC)Oc1cc(C)nc(C(C)C)n1")
15.6
>>> recorded_measurement("CCOCN(C(=O)CCl)c1c(C)cccc1CC")
15
>>> recorded_measurement("CN(C)CC(c1ccc(O)cc1)C1(O)CCCCC1 (stereo not drawn)")
8.96
>>> recorded_measurement("CN/C(=N\\[N+](=O)[O-])NCc1cnc(Cl)s1")
8.59
>>> recorded_measurement("CC1(C)CC(O)CC(C)(C)N1CCO [4-Hydroxy-1-(2-hydroxyethyl)-2,2,6,6-tetramethylpiperidine]")
2.23
>>> recorded_measurement("CN(C)CCCC1(c2ccc(F)cc2)OCc2cc(C#N)ccc21 (stereo not drawn)")
11.3
>>> recorded_measurement("C[C@]12CCC(=O)C=C1CC[C@@H]1[C@@H]2C(=O)C[C@@]2(C)[C@H]1CC[C@]2(O)C(=O)CO")
16.9
>>> recorded_measurement("O=C(Nc1ccc(F)cc1F)c1cccnc1Oc1cccc(C(F)(F)F)c1")
16.2
>>> recorded_measurement("COCCN(C(=O)CCl)c1c(C)cccc1C")
13.3
>>> recorded_measurement("O=C1NCCN1Cc1ccc(Cl)nc1")
8.55
>>> recorded_measurement("CN(C)C(=O)Nc1ccc(Oc2ccc(Cl)cc2)cc1")
14.6
>>> recorded_measurement("Cn1ncc(N)c(Cl)c1=O")
5.06
>>> recorded_measurement("CC1(C)[C@@H](O)CC[C@]2(C)[C@H]3C(=O)C=C4[C@@H]5C[C@@](C)(C(=O)O)CC[C@]5(C)CC[C@@]4(C)[C@]3(C)CC[C@@H]12")
17.5
>>> recorded_measurement("CN1CCN(C2=Nc3cc(Cl)ccc3Nc3ccccc32)CC1")
11.6
>>> recorded_measurement("CCc1cccc(C)c1N(C(=O)CCl)C(C)COC (stereo not drawn)")
15.1
>>> recorded_measurement("Nc1nc(NC2CC2)c2ncn([C@H]3C=C[C@@H](CO)C3)c2n1")
8
>>> recorded_measurement("CCCCCCOC(=O)c1ccccc1C(=O)OCCCCCC [Di-n-hexyl phthalate]")
18.2
>>> recorded_measurement("O=C(NC1CCCCC1)NC1CCCCC1")
13.9
